# Test system: P. berghei ookinete development
# ASSAY_CONTEXT: primary screen at 1 μM, replicate A
Known % inhibition, Replicate A of a selection of compounds

{"COMPOUND": "COc1ccc2ncc(Cl)c(NCC3(O)CCC(NCc4ccc5c(n4)NC(=O)CS5)CC3)c2n1.Cl (centres unmarked) [TCMDC-134671]", "% inhibition, Replicate A (%)": 92.69}
{"COMPOUND": "CC1(C)NC(N)=NC(=N)N1OCOc1ccc(Cl)cc1.Cl [TCMDC-131734]", "% inhibition, Replicate A (%)": 89.86}
{"COMPOUND": "Cc1nc2nc(N)nc(N)c2c(C)c1Cc1ccc(N)cc1.Cl [TCMDC-137633]", "% inhibition, Replicate A (%)": 2.48}
{"COMPOUND": "Br.CCC(ON1C(N)=NC(N)=NC1(C)C)c1ccc(Cl)cc1 (centres unmarked) [TCMDC-131709]", "% inhibition, Replicate A (%)": 60.03}
{"COMPOUND": "Cc1cc(C(=O)NC2CCN(CC3(c4ccccc4)CCCCC3)CC2)on1 [TCMDC-124832]", "% inhibition, Replicate A (%)": 102.69}
{"COMPOUND": "C/C=C/COc1ccc(-c2c(C)[nH]c(C)c(Cl)c2=O)cc1 [TCMDC-134729]", "% inhibition, Replicate A (%)": 83.52}
{"COMPOUND": "CCc1cc2c(Sc3nc4ccccc4[nH]3)ncnc2s1 [TCMDC-124553]", "% inhibition, Replicate A (%)": 56.26}
{"COMPOUND": "Cc1[nH]c(C)c(-c2ccc(Oc3cccc(OC(F)(F)F)c3)cc2)c(=O)c1Cl [TCMDC-137389]", "% inhibition, Replicate A (%)": 25.35}
{"COMPOUND": "Cc1cccc2nc(-c3ccc(-c4cccc(CN5CCCC(N)C5)c4)s3)[nH]c12.O=C(O)C(F)(F)F (centres unmarked) [TCMDC-133874]", "% inhibition, Replicate A (%)": 50.71}
{"COMPOUND": "COc1ccc(CCc2ccc(-c3c(C)[nH]c(C)c(Cl)c3=O)cc2)cc1OC [TCMDC-135789]", "% inhibition, Replicate A (%)": 97.42}
{"COMPOUND": "Cc1[nH]c2ccccc2c1C(=O)C(C)Sc1nnc(-c2ccccc2F)o1 (centres unmarked) [TCMDC-125312]", "% inhibition, Replicate A (%)": 63.08}

====

# Tested on: HepG2 cells
# PROCEDURE_SUMMARY: HepG2 cytotoxicity assay
# ASSAY_CONTEXT: read-out: HepG2 cytotoxicity assay IC50; dose response confirmation
Known IC50 of a selection of compounds

{"LINE_NOTATION": "O=C(Nc1ccccc1)Nc1ccc(-n2ccc(C(F)(F)F)n2)cc1", "UNITS_TEXT": "µM", "IC50": 100}
{"LINE_NOTATION": "COc1ccc(-c2cnc(N)c(-c3ccc(C(N)=O)cc3)c2)cc1OC", "UNITS_TEXT": "µM", "IC50": 100}
{"LINE_NOTATION": "Cc1nc(C)c(-c2ccc(Cl)cc2)c(O)c1I", "UNITS_TEXT": "µM", "IC50": 100}
{"LINE_NOTATION": "Cc1[nH]c(C)c(-c2ccc(CCc3cccc(C(F)(F)F)c3)nc2)c(=O)c1Cl", "UNITS_TEXT": "µM", "IC50": 7.08}
